The reported measurements were obtained from paper PMC10296094.

target: K-RasG12V/centrin1 (Homo sapiens, UniProt Q12798); test: Cellular BRET Rluc8-K-RasG12V/GFP2-centrin1 in HEK293-ebna cells; conditions: HEK293-ebna, donor/acceptor plasmid ratio 1/19, 24 h treatment, n = 2; read-out: IC50, inhibition of K-RasG12V/centrin1 BRET interaction
Sequence (Q12798 whole entry): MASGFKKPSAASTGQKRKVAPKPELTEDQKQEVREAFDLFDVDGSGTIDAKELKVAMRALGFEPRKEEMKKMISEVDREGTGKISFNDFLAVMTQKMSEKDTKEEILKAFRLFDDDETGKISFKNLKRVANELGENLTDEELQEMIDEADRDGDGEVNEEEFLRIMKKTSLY
metric: pIC50
In textbook form, pIC50 equals minus log to base ten of the concentration in mol/L.

What pIC50 value was documented for this compound, Clc1ccc(C(c2ccc(Cl)cc2)n2cc[n+](CC(OCc3ccc(Cl)cc3Cl)c3ccc(Cl)cc3Cl)c2)cc1 (stereo not shown) [calmidazolium, calmidazolium chloride] ?
4.98
